Data origin, for the record: patent US20040006236A1

Examples of molecules with documented IC50 follow.
- System: Mac-1 and LFA-1-mediated neutrophil binding to immobilized ICAM-1
- ASSAY_PROTOCOL: Neutrophil (Mac-1 and LFA-1)/ICAM-1 cell-based screening assay
- ASSAY_CONTEXT: human neutrophils
Note: unit nM is implicit; provide only the numeric part.

// solved cases for IC50 follow
| SMILES_REPR | RESULT_TYPE | UNITS_OF_MEASURE | MEASURED_VALUE |
| --- | --- | --- | --- |
| O=C(NCc1cccc(O)c1)c1ccc(C(=O)N[C@@H](CNC(=O)c2ccc3c(c2)S(=O)(=O)c2ccccc2C3=O)C(=O)O)c(Cl)c1 | IC50 | nM | 634 |
| O=C(NCc1cccc(O)c1)c1ccc(C(=O)N[C@@H](CNC(=O)c2cc(F)cc(F)c2)C(=O)O)c(Cl)c1 | IC50 | nM | 34 |
| O=C(NCc1cccc(O)c1)c1ccc(C(=O)N[C@@H](CNC(=O)c2cccc(Cl)c2)C(=O)O)c(Cl)c1 | IC50 | nM | 21 |

IC50 for C[C@@H](NC(=O)c1cc(Cl)c(C(=O)N[C@@H](CNC(=O)c2cccs2)C(=O)O)c(Cl)c1)c1cccc2ccccc12 ? 9.7
